- tested.system: Luciferin 4-monooxygenase (Photinus pyralis)
- protocol.summary: FLuc activators, initial screening, artefact control for FLuc-dependent activation tests, biochemical, ATPlite luminescence (AID 1027)
- cond: ATPlite luciferase biochemical, 10 min, at 10 µM, hits give high values, 0 = ATP-free wells, 1 = DMSO control
The whole screen tested about 200,000 compounds, of which fewer than 10 were called active. Not all results are given here.
quantity.name: activation factor
Please give only the number in your answer, with no unit.

Consider the reported activation factor for these molecules:
{"molecule": "NC(=O)c1ccccc1N(Cc1ccccc1)S(=O)(=O)c1ccccc1", "activation factor": 1}
{"molecule": "CC1=CC=CN2C1=NC(=O)CC2(C)C(=O)N(CC(=O)NC1CCCC1)c1ccccc1C (stereo unspecified)", "activation factor": 1.1}

What value of activation factor has been reported for the following molecule? CC1Cc2ccccc2N1C1=CC(=O)CC(C)(C)C1 (stereo unspecified) 1.1

Would you kindly share the measured activation factor for CCn1ccnc1CN(C)Cc1nc(-c2ccc3c(c2)OCO3)no1 ? 1

Look up activation factor for this molecule: Cc1cs/c(=N\N=C\c2ccc(O)cc2)n1Cc1ccco1 1
